- Test system: IL-12-induced IFN-γ secretion in NK92 cells
- TEST: Inhibition of IL-12-induced IFN-γ Secretion in NK92 Cells (ELISA)
- Assay type: cell-based, human
- APPLIED_CONDITIONS: Homo sapiens, 24 hours incubation, 8 concentration points, read-out: IC50 (NK92_IL12/IFNγ)
Could you please report measured log10(IC50) for the items listed next?
Reminder: these figures are log10 of reported IC50, in nM before transformation.

# Cc1cnc(Nc2cnn(C)c2)nc1N1C[C@@H]2CN(C(=O)C3CC3)C[C@]2(C)C1 (racemic) [Compound 70] with IL-12-induced IFN-γ secretion in NK92 cells: log10(IC50) is 3.08

# Cn1cc(Nc2ncc(Cl)c(N3C[C@@H]4CN(C(=O)c5ccno5)C[C@]4(C)C3)n2)cn1 (racemic) [Compound 64] with IL-12-induced IFN-γ secretion in NK92 cells: log10(IC50) is 2.21

# Cn1cc(Nc2ncc(Cl)c(N3C[C@@H]4CN(Cc5ccno5)C[C@]4(C)C3)n2)cn1 (racemic) [Compound 74] with IL-12-induced IFN-γ secretion in NK92 cells: log10(IC50) is 2.32

# Cn1cc(Nc2ncc(Cl)c(N3C[C@]4(C)CN(CC5CC5)C[C@]4(C)C3)n2)cn1 [Compound 84] with IL-12-induced IFN-γ secretion in NK92 cells: log10(IC50) is 3.94

# Cc1cnc(Nc2cnn(C)c2)nc1N1C[C@@H]2CN(Cc3ccno3)C[C@]2(C)C1 (racemic) [Compound 73] with IL-12-induced IFN-γ secretion in NK92 cells: log10(IC50) is 2.44

# Cn1cc(Nc2ncc(Cl)c(N3C[C@]4(C)CN(C(=O)C5(C#N)CC5)C[C@]4(C)C3)n2)cn1 [Compound 42] with IL-12-induced IFN-γ secretion in NK92 cells: log10(IC50) is 3.54

# [2H]C([2H])([2H])n1cc(Nc2ncc(Cl)c(N3C[C@@H]4CN(C(=O)CC#N)C[C@]4(C)C3)n2)cn1 [Compound 99] with IL-12-induced IFN-γ secretion in NK92 cells: log10(IC50) is 2.20

# Cc1cnc(Nc2cnn(C)c2)nc1N1C[C@@]2(C)CN(S(C)(=O)=O)C[C@@]2(C)C1 [Compound 55] with IL-12-induced IFN-γ secretion in NK92 cells: log10(IC50) is 2.62

# Cc1cnc(Nc2cnn(C)c2)nc1N1C[C@@H]2CN(C(=O)[C@@H]3CC3(F)F)C[C@]2(C)C1 (racemic) [Compound 72] with IL-12-induced IFN-γ secretion in NK92 cells: log10(IC50) is 2.92

# Cn1cc(Nc2ncc(Cl)c(N3C[C@@H]4CN(S(C)(=O)=O)C[C@]4(C)C3)n2)cn1 (racemic) [Compound 61] with IL-12-induced IFN-γ secretion in NK92 cells: log10(IC50) is 2.76

# Cn1cc(Nc2ncc(Cl)c(N3C[C@@H]4CN(C(=O)C5CC5(F)F)C[C@]4(C)C3)n2)cn1 (mixture of isomers) [Compound 65] with IL-12-induced IFN-γ secretion in NK92 cells: log10(IC50) is 2.13

# Cn1cc(Nc2ncc(Cl)c(N3C[C@H]4CN(C(=O)[C@@H]5CC5(F)F)C[C@@]4(C)C3)n2)cn1 [Compound 91] with IL-12-induced IFN-γ secretion in NK92 cells: log10(IC50) is 2.59

# Cc1ncc(CN2C[C@@]3(C)CN(c4nc(Nc5cnn(C)c5)ncc4Cl)C[C@@]3(C)C2)o1 [Compound 80] with IL-12-induced IFN-γ secretion in NK92 cells: log10(IC50) is 3.61

# Cn1cc(Nc2ncc(Cl)c(N3C[C@]4(C)CN(Cc5cn[nH]c5)C[C@]4(C)C3)n2)cn1 [Compound 79] with IL-12-induced IFN-γ secretion in NK92 cells: log10(IC50) is 3.60

###

- Test system: IL-12-induced IFN-γ secretion in NK92 cells
- TEST: Inhibition of IL-12-induced IFN-γ Secretion in NK92 Cells (ELISA)
- Assay type: cell-based, human
- APPLIED_CONDITIONS: Homo sapiens, 24 hours incubation, 8 concentration points, read-out: IC50 (NK92_IL12/IFNγ)
EXPERIMENTAL_ENDPOINT: log10 IC50 (log10 of the value in nM)
Reminder: these figures are log10 of reported IC50, in nM before transformation.

# Cn1cc(Nc2nccc(N3C[C@@H]4CN(Cc5ccno5)C[C@]4(C)C3)n2)cn1 (relative stereo) with IL-12-induced IFN-γ secretion in NK92 cells: log10 IC50 is 3.85

# Cn1cc(Nc2ncc(Cl)c(N3C[C@]4(C)CN(CC(F)(F)F)C[C@]4(C)C3)n2)cn1 with IL-12-induced IFN-γ secretion in NK92 cells: log10 IC50 is 2.63

# Cn1cc(Nc2ncc(Cl)c(N3C[C@]4(C)CN(C(=O)C(C)(C)O)C[C@]4(C)C3)n2)cn1 with IL-12-induced IFN-γ secretion in NK92 cells: log10 IC50 is 3.56

# Cn1cc(Nc2ncc(Cl)c(N3C[C@@]4(C)CN(S(C)(=O)=O)C[C@@]4(C)C3)n2)cn1 with IL-12-induced IFN-γ secretion in NK92 cells: log10 IC50 is 2.46

# C[C@@H](O)Cn1cc(Nc2ncc(Cl)c(N3C[C@]4(C)CN(C(=O)C5CC5)C[C@]4(C)C3)n2)cn1 with IL-12-induced IFN-γ secretion in NK92 cells: log10 IC50 is 3.02

# C[C@@]12CN(C(=O)C3CC3)C[C@]1(C)CN(c1nc(Nc3cnn(CCO)c3)ncc1Cl)C2 with IL-12-induced IFN-γ secretion in NK92 cells: log10 IC50 is 2.82

# CC(=O)N1C[C@@]2(C)CN(c3nc(Nc4cnn(C)c4)ncc3Cl)C[C@@]2(C)C1 with IL-12-induced IFN-γ secretion in NK92 cells: log10 IC50 is 2.85

# Cn1cc(Nc2ncc(Cl)c(N3C[C@H]4CN(C(=O)CC#N)C[C@H]4C3)n2)cn1 with IL-12-induced IFN-γ secretion in NK92 cells: log10 IC50 is 2.81

# Cn1cc(Nc2ncc(F)c(N3C[C@]4(C)CN(CC(F)F)C[C@]4(C)C3)n2)cn1 with IL-12-induced IFN-γ secretion in NK92 cells: log10 IC50 is 3.12

# Cc1cc(CN2C[C@@]3(C)CN(c4nc(Nc5cnn(C)c5)ncc4Cl)C[C@@]3(C)C2)on1 with IL-12-induced IFN-γ secretion in NK92 cells: log10 IC50 is 3.44

# Cn1cc(Nc2ncc(Cl)c(N3C[C@]4(C)CN(C(=O)CC(F)(F)F)C[C@]4(C)C3)n2)cn1 with IL-12-induced IFN-γ secretion in NK92 cells: log10 IC50 is 2.85

###

- TESTED_ON: human recombinant TYK2 protein (Homo sapiens, UniProt P29597)
- Construct: purchased Carna Biosciences 08-147
- Sequence (P29597 871-1187 limits assumed): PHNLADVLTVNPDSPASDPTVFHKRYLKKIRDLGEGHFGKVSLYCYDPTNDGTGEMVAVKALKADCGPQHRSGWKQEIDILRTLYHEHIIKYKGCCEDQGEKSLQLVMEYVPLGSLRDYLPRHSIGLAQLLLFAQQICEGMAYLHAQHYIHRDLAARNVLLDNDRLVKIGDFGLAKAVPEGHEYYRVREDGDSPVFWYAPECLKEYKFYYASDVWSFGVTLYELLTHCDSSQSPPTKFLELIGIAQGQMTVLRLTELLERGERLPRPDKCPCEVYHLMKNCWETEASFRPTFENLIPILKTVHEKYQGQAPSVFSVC
- TEST: TYK2 Inhibition Assay (HTRF kinase assay)
- Format: biochemical
- APPLIED_CONDITIONS: human recombinant TYK2, 11.25 μM ATP substrate solution
Could you please report measured IC50 for the items listed next?
Just the number please, in nM, no unit attached.

Record Cn1cc(Nc2ncc(Cl)c(N3C[C@]4(C)CN(CC5CC5)C[C@]4(C)C3)n2)cn1 , field IC50: 186

Record C[C@@]12CN(C(=O)C3CC3)C[C@]1(C)CN(c1nc(Nc3cnn(CCO)c3)ncc1F)C2 , field IC50: 8.5

Record Cc1cc(CN2C[C@@]3(C)CN(c4nc(Nc5cnn(C)c5)ncc4Cl)C[C@@]3(C)C2)on1 , field IC50: 4.2

Record CCC(=O)N1C[C@@]2(C)CN(c3nc(Nc4cnn(C)c4)ncc3Cl)C[C@@]2(C)C1 , field IC50: 1.8

Record Cc1cnc(Nc2cnn(C)c2)nc1N1C[C@]2(C)CN(C(=O)CC(F)(F)F)C[C@]2(C)C1 , field IC50: 2.2

Record Cc1cnc(Nc2cnn(C)c2)nc1N1C[C@@H]2CN(C(=O)C3CC3)C[C@]2(C)C1 (racemic) , field IC50: 5.3

Record [2H]C([2H])([2H])n1cc(Nc2ncc(Cl)c(N3C[C@@H]4CN(C(=O)CC#N)C[C@]4(C)C3)n2)cn1 , field IC50: 0.1

Record Cn1cc(Nc2ncc(Cl)c(N3C[C@]4(C)CN(C(=O)[C@@H]5CC5(F)F)C[C@]4(C)C3)n2)cn1 , field IC50: 0.8

Record Cn1cc(Nc2ncc(Cl)c(N3C[C@]4(C)CN(C(=O)CC(F)F)C[C@]4(C)C3)n2)cn1 , field IC50: 0.9
